B1: ZNF263 (parent)
chain: KPYKCTLCGENFSHRSNLIRHQRI

- Variants of: B1
- Protocol Summary: protein stability index of a GFP-peptide fusion (GPS, HEK-293T) (PSI 1-6); higher = more stable;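 note: lentivirally expressed fusions sorted by FACS into six bins by GFP to DsRed ratio, PSI derived from sequencing read proportions per bin multiplied by bin number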
- Experimental Parameters: c terminus: a fixed tail appended
Measured protein stability index values are reported for all entries that follow.
Quick one: just the number, no unit, thanks!

// worked examples, protein stability index included
{"columns": ["Entry Sequence", "Value Observed"],
 "data": [
  ["KPYKCTLCGENFSHRSNWIRHQRI [L18W]", 2.19],
  ["KPYKCTLCGANFSHRSNLIRHQRI [E10A]", 2.82],
  ["KPYKCTLQGENFSHRSNLIRHQRI [C8Q]", 2.74]
]}

--- query ---
// sample KPYKCTLCGENFSHRSNLLRHQRI [I19L] , its protein stability index was 2.32
